Below is a list of entries, each paired with its recorded IL-2, % of BMS, at 0.082304527 ug/mL value.
target: human LAG3 expressed on cells (human) (UniProt P18627); experiment: cell-based or functional assay
Sequence (P18627 23-525): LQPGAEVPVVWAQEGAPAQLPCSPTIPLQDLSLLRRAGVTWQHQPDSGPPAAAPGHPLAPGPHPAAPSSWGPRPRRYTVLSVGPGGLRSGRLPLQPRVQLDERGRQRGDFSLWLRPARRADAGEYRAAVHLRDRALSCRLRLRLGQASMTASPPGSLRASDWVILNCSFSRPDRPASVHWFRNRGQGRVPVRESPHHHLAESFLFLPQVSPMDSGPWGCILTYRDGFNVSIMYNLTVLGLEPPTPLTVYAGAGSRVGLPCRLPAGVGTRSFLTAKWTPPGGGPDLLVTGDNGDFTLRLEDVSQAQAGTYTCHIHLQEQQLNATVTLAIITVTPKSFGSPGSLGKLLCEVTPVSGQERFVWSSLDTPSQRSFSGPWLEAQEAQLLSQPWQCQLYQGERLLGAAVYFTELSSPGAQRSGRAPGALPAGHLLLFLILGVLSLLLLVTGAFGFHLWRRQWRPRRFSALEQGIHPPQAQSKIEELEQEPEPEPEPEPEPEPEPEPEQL
Expressed in %, but write only the number.

# binder, IL-2, % of BMS, at 0.082304527 ug/mL / %
rows = [
    ("sdAb fusion 25-17-3 (Fc fusion, not shown: a dimerising Fc or GST) QLQLVESGGGLVQAGGSLRLSCAASGSIESFSFMGWYRQAPGKQRELVAGFTGAASLSFSTYTDAVKGRFTISRDNAKNTVYLQMNSLKPEDTAVYFCNVDPWSQSWPGRYWGQGTQVTVSSGGGGSGGGGSGGGGSQLQLVESGGGLVQPGGSLRLSCAASGLTLDGYAIGWFRQAPGKEREGLACISGSDGSTHYLDSVKGRFTISRDNGKNTMALQMNSLQFGDTAIYYCAARRGSCSGSWTYWGQGTQVTVSSEPKSCDKTHTCPPCPAPELLG", 11.7),
    ("sdAb fusion 25-27-2 (Fc fusion, not shown: a dimerising Fc or GST) QLQLVESGGGLVQAGGSLRLSCAASGSIESFSFMGWYRQAPGKQRELVAGFTGAASLSFSTYTDAVKGRFTISRDNAKNTVYLQMNSLKPEDTAVYFCNVDPWSQSWPGRYWGQGTQVTVSSGGGGSGGGGSQVQLVESGGGLVQPGGSLRLSCAASGFTLDYYAIGWFRQAPGKEREGVSCIRSSDGSTYYADSVKGRFTISSDNTKNTVYLQMNSLKPEDTAVYYCATDRYSDCRGPYENWGQGTQVTVSSEPKSCDKTHTCPPCPAPELLG", 6.04),
    ("sdAb fusion 25-2015-2 (Fc fusion, not shown: a dimerising Fc or GST) QLQLVESGGGLVQAGGSLRLSCAASGSIESFSFMGWYRQAPGKQRELVAGFTGAASLSFSTYTDAVKGRFTISRDNAKNTVYLQMNSLKPEDTAVYFCNVDPWSQSWPGRYWGQGTQVTVSSGGGGSGGGGSQLQLVESGGGLAQTGGSLRLSCAAAGFTFDDTATGWFRQAPGKNREGVACISSSDGRIHYIDSAKGRFTISKDNAKKTVYLQMDSLKPEDTAVYYCAAARKGSTDCQGAIWGSWGQGTQVIVSSEPKSCDKTHTCPPCPAPELLG", -0.802),
]

*Q* For the binder shown here, sdAb fusion 25-17-2 (Fc fusion, not shown: a dimerising Fc or GST) QLQLVESGGGLVQAGGSLRLSCAASGSIESFSFMGWYRQAPGKQRELVAGFTGAASLSFSTYTDAVKGRFTISRDNAKNTVYLQMNSLKPEDTAVYFCNVDPWSQSWPGRYWGQGTQVTVSSGGGGSGGGGSQLQLVESGGGLVQPGGSLRLSCAASGLTLDGYAIGWFRQAPGKEREGLACISGSDGSTHYLDSVKGRFTISRDNGKNTMALQMNSLQFGDTAIYYCAARRGSCSGSWTYWGQGTQVTVSSEPKSCDKTHTCPPCPAPELLG , give the reported IL-2, % of BMS, at 0.082304527 ug/mL.
*A* -7.68

*Q* For the binder shown here, sdAb fusion 25-27-3 (Fc fusion, not shown: a dimerising Fc or GST) QLQLVESGGGLVQAGGSLRLSCAASGSIESFSFMGWYRQAPGKQRELVAGFTGAASLSFSTYTDAVKGRFTISRDNAKNTVYLQMNSLKPEDTAVYFCNVDPWSQSWPGRYWGQGTQVTVSSGGGGSGGGGSGGGGSQVQLVESGGGLVQPGGSLRLSCAASGFTLDYYAIGWFRQAPGKEREGVSCIRSSDGSTYYADSVKGRFTISSDNTKNTVYLQMNSLKPEDTAVYYCATDRYSDCRGPYENWGQGTQVTVSSEPKSCDKTHTCPPCPAPELLG , give the reported IL-2, % of BMS, at 0.082304527 ug/mL.
*A* -0.289

*Q* For the binder shown here, sdAb fusion 25-17-1 (Fc fusion, not shown: a dimerising Fc or GST) QLQLVESGGGLVQAGGSLRLSCAASGSIESFSFMGWYRQAPGKQRELVAGFTGAASLSFSTYTDAVKGRFTISRDNAKNTVYLQMNSLKPEDTAVYFCNVDPWSQSWPGRYWGQGTQVTVSSGGGGSQLQLVESGGGLVQPGGSLRLSCAASGLTLDGYAIGWFRQAPGKEREGLACISGSDGSTHYLDSVKGRFTISRDNGKNTMALQMNSLQFGDTAIYYCAARRGSCSGSWTYWGQGTQVTVSS , give the reported IL-2, % of BMS, at 0.082304527 ug/mL.
*A* -5.85
